Subject of test: T1, human GPC3 on CHO-K1-human GPC3 cells (clone CHOK1-hGPC3.2B5) (human, UniProt P51654 25-554)
T1 construct: whole, on cells; Stably transfected CHO-K1 clone 2B5
Experiment description: FACS on CHOK1-hGPC3.2B5 cells;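 also: flow cytometry binding of chimeric antibodies to the cells, read out as mean fluorescence intensity, with the half-maximal concentration derived by curve fitting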
Known pEC50 of a selection of binders
Reminder that pEC50 means the negative base-10 logarithm of the concentration expressed in mol/L.

Solved entries (count: 2):
Binder: F4.21.16 human-murine chimeric antibody (antibody, human IgG1, kappa, V domains shown) VH: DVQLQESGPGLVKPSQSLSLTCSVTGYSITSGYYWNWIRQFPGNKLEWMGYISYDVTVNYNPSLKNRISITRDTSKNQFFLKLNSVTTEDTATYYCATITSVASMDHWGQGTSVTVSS VL: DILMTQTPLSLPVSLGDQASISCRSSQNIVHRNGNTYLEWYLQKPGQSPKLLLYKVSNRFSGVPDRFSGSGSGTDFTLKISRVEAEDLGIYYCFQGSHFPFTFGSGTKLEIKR
pEC50: 8.49
//
Binder: F2.55.11 human-murine chimeric antibody (antibody, human IgG1, kappa, V domains shown) VH: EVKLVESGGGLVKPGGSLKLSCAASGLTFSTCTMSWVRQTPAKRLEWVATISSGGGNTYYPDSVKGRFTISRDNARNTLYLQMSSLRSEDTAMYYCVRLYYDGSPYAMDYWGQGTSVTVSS VL: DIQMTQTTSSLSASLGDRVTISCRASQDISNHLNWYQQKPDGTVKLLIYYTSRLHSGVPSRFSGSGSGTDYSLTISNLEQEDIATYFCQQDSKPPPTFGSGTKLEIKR
pEC50: 9.05

Value of measured pEC50 for the entry F1.136.7 human-murine chimeric antibody (antibody, human IgG1, kappa, V domains shown) VH: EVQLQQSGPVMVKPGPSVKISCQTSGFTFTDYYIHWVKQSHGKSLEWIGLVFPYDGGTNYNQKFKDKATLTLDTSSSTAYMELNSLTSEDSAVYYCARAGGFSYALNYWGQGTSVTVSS VL: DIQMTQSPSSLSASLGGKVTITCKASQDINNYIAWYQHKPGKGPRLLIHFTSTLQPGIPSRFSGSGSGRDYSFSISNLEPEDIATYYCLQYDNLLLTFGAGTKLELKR : 8.85

Where these numbers come from: patent US20260116991A1
